- tested system: PDGFRalpha(V561D) (Homo sapiens, UniProt P16234, V561D)
- Construct: recombinant human PDGFRalpha, amino acids 550end containing the V561 D mutation; 6His (N)
- Sequence (P16234 550-1089 V561D): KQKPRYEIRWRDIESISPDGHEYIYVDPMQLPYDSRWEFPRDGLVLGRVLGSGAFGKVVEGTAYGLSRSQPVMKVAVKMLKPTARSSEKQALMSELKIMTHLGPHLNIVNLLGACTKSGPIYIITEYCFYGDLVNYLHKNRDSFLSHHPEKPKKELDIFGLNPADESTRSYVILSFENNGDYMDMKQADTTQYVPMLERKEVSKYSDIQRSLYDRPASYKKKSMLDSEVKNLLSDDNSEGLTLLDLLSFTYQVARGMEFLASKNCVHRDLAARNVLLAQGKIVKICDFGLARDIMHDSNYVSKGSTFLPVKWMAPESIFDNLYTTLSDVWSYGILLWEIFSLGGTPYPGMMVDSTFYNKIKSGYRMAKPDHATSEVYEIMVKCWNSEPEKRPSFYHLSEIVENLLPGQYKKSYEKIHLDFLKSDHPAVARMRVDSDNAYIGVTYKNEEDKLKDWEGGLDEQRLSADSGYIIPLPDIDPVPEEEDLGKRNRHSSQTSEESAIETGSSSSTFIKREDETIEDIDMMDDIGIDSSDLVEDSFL
- test: PDGFRalpha(V561D) assay
- stated conditions: recombinant human PDGFRalpha aa 550-end, 200 μM ATP, 1.4E-06 means 1.4×10^−6, read-out: Inhibition (IC50) of PDGFRα (V561D)
Where a name gives a salt, the structure may show the parent alone.
reported property: IC50 (nM)

[I] O=C(c1ccc(-n2cc(-c3cc4cc(F)c(F)cc4[nH]c3=O)nn2)cc1)N1CCNCC1 [A128]
[II] CO[C@@H]1C[C@@H](CO)N(C(=O)c2ccc(-n3cc(-c4cc5cc(Cl)ccc5[nH]c4=O)nn3)cc2)C1 [A248]
[III] N[C@@H]1CCN(C(=O)c2ccc(-n3cc(-c4cc5cc(F)ccc5[nH]c4=O)nn3)cc2)C1 [A313, hydrochloride]
[IV] O=C(c1ccc(-n2cc(-c3cc4cc(F)ccc4[nH]c3=O)nn2)cc1)N1CCC[C@H]1CN1CCCC1 [A279]
Q. Rank items: key IC50, increasing. Rank the items, then write their labels in that order.
A. IV, I, II, III

====

- tested system: PDGFRalpha(V561D) (Homo sapiens, UniProt P16234, V561D)
- Construct: recombinant human PDGFRalpha, amino acids 550end containing the V561 D mutation; 6His (N)
- test: PDGFRalpha(V561D) assay
- stated conditions: recombinant human PDGFRalpha aa 550-end, 200 μM ATP, 1.4E-06 means 1.4×10^−6, read-out: Inhibition (IC50) of PDGFRα (V561D)
reported property: IC50 (nM)

Use the examples below as a reference point.
molecule: CN1CCN(C(=O)c2ccc(-n3cc(-c4cc5c(F)cc(F)cc5[nH]c4=O)nn3)cc2)CC1=O
readout unit: nM
IC50: 370
//
molecule: CC(=O)N(C)c1ccc(-n2cc(-c3cc4cc(F)ccc4[nH]c3=O)nn2)cc1
readout unit: nM
IC50: 190

[a] CN1CCN(CCOc2ccc(-n3cc(-c4cc5cc(F)ccc5[nH]c4=O)nn3)cc2)CC1
[b] O=C(c1ccc(-n2cc(-c3cc4cc(F)ccc4[nH]c3=O)nn2)cc1)N1C[C@@H](O)CO1
Q. Parameter metric = IC50. Return the lower-valued option from a and b . Choose, then provide that item's label.
A. a
(a: 1.6 nM, b: 3.3 nM)

====

- tested system: PDGFRalpha(V561D) (Homo sapiens, UniProt P16234, V561D)
- Construct: recombinant human PDGFRalpha, amino acids 550end containing the V561 D mutation; 6His (N)
- test: PDGFRalpha(V561D) assay
- stated conditions: recombinant human PDGFRalpha aa 550-end, 200 μM ATP, 1.4E-06 means 1.4×10^−6, read-out: Inhibition (IC50) of PDGFRα (V561D)
- Experimental: PDGFRalpha(V561D) (N-terminal 6His-tagged, recombinant human PDGFRalpha, amino acids 550end containing the V561 D mutation) is incubated with 8 mM MOPS pH 7.0, 0.2 mM EDTA, 250 μM GGMEDIYEFMGGKKK, 10 mM MgAcetate and [gamma-33P-ATP] (specific activity approx. 500 cpm/pmol, concentration 200 μM). The reaction is initiated by the addition of the MgATP mix. After incubation for 40 minutes at room temperature, the reaction is stopped by the addition of 3% phosphoric acid solution. […]
reported property: IC50 (nM)

Use the examples below as a reference point.
compound: CN1CCN(C(=O)Cc2ccc(-n3cc(-c4cc5cc(F)c(F)cc5[nH]c4=O)nn3)cc2)CC1
tested system: PDGFRalpha(V561D) (Homo sapiens, UniProt P16234, V561D)
IC50, nM: 430

compound: O=C(c1ccc(-n2cc(-c3cc4cc(F)c(F)cc4[nH]c3=O)nn2)cc1)N1CCC(OCCN2CCOCC2)C1 (stereo not drawn)
tested system: PDGFRalpha(V561D) (Homo sapiens, UniProt P16234, V561D)
IC50, nM: 380

compound: O=C(c1ccc(-n2cc(-c3cc4cc(F)ccc4[nH]c3=O)nn2)cc1)N1C[C@H]2CNC[C@H]2C1
tested system: PDGFRalpha(V561D) (Homo sapiens, UniProt P16234, V561D)
IC50, nM: 97.4

compound: CN1CCN(c2ncc(-n3cc(-c4cc5ccccc5[nH]c4=O)nn3)cn2)CC1
tested system: PDGFRalpha(V561D) (Homo sapiens, UniProt P16234, V561D)
IC50, nM: 190

compound: O=C(c1ccc(-n2cc(-c3cc4ccc(Br)cc4[nH]c3=O)nn2)cc1)N1CCOCC1
tested system: PDGFRalpha(V561D) (Homo sapiens, UniProt P16234, V561D)
IC50, nM: 8.2

compound: COCCCN1CCN(C(=O)c2ccc(-n3cc(-c4cc5c(F)cccc5[nH]c4=O)nn3)cc2)CC1
tested system: PDGFRalpha(V561D) (Homo sapiens, UniProt P16234, V561D)
IC50, nM: 12

compound: COC[C@@H]1CCCN1C(=O)c1ccc(-n2cc(-c3cc4cc(F)ccc4[nH]c3=O)nn2)cc1
tested system: PDGFRalpha(V561D) (Homo sapiens, UniProt P16234, V561D)
IC50, nM: 220

compound: O=C(c1ccc(-n2cc(-c3cc4cc(Cl)ccc4[nH]c3=O)nn2)cc1)N1CCC2(CC1)COC2
tested system: PDGFRalpha(V561D) (Homo sapiens, UniProt P16234, V561D)
IC50, nM: 4.3

[I] CN(C)C(=O)c1ccc(-n2cc(-c3cc4ccccc4[nH]c3=O)nn2)cc1
[II] CN1CCC(CNC(=O)c2ccc(-n3cc(-c4cc5ccccc5[nH]c4=O)nn3)cc2)CC1
[III] O=C(c1ccc(-n2cc(-c3cc4cc(F)ccc4[nH]c3=O)nn2)cc1)N1CCC[C@H]1CO
[IV] O=C(c1ccc(-n2cc(-c3cc4ccc(F)cc4[nH]c3=O)nn2)cc1)N1CCNCC1
Q. Returns the items ordered by IC50, from maximum to minimum. Rank the items, then write their labels in that order.
A. II, III, I, IV
(II: 47 nM, III: 32 nM, I: 19 nM, IV: 11 nM)

[1] CN(C)C1CCN(C(=O)c2ccc(-n3cc(-c4cc5cc(F)ccc5[nH]c4=O)nn3)cc2)C1 (stereo not drawn)
[2] CN1CCN(C(=O)c2ccc(-n3cc(-c4cc5ccncc5[nH]c4=O)nn3)cc2)CC1
[3] O=C(c1ccc(-n2cc(-c3cc4cc(Cl)ccc4[nH]c3=O)nn2)cc1)N1CCC[C@H]1CO
[4] O=C(c1ccc(-n2cc(-c3cc4cc(Cl)ccc4[nH]c3=O)nn2)cc1)N1CC[C@@H](F)C1
Q. Hey, can you sort those compounds up there by IC50, smallest first? Rank the items, then write their labels in that order.
A. 4, 3, 2, 1

[a] COC[C@@H]1CCN(C(=O)c2ccc(-n3cc(-c4cc5cc(F)ccc5[nH]c4=O)nn3)cc2)C1
[b] CN1CCN(C(=O)c2ccc(-n3cc(-c4cc5ccc(C(F)(F)F)cc5[nH]c4=O)nn3)cc2)CC1
Q. Hi, I'm comparing a with b and wondering which one has the bigger number for IC50. Any idea? Choose, then provide that item's label.
A. b

====

- tested system: PDGFRalpha(V561D) (Homo sapiens, UniProt P16234, V561D)
- Construct: recombinant human PDGFRalpha, amino acids 550end containing the V561 D mutation; 6His (N)
- test: PDGFRalpha(V561D) assay
- stated conditions: recombinant human PDGFRalpha aa 550-end, 200 μM ATP, 1.4E-06 means 1.4×10^−6, read-out: Inhibition (IC50) of PDGFRα (V561D)
pIC50: −log10 of the molar value.
reported property: pIC50

Use the examples below as a reference point.
compound: CN1CC[C@H](Oc2ccc(-n3cc(-c4cc5cc(F)ccc5[nH]c4=O)nn3)cc2)C1
value reported: 7.24
//
compound: COCCCN1CCN(C(=O)c2ccc(-n3cc(-c4cc5cccnc5[nH]c4=O)nn3)cc2)CC1
value reported: 8.10
//
compound: O=C(c1ccc(-n2cc(-c3cc4cc(F)ccc4[nH]c3=O)nn2)cc1)N1CCOC2(COC2)C1
value reported: 6.47
//
compound: CN1CCN(C(=O)c2ccc(-n3cc(-c4cc5cccc(F)c5[nH]c4=O)nn3)cc2)CC1
value reported: 7.43
//
compound: CO[C@@H]1CC[C@H](Oc2ccc(-n3cc(-c4cc5cc(Cl)ccc5[nH]c4=O)nn3)cc2)C1 (stereo in doubt)
value reported: 6.82
//
compound: COC[C@H]1CC[C@H](COC)N1C(=O)c1ccc(-n2cc(-c3cc4cc(F)c(F)cc4[nH]c3=O)nn2)cc1
value reported: 6.30
//
compound: CN1CCN(C(=O)c2ccc(-n3cc(-c4cc5ccc(Cl)cc5[nH]c4=O)nn3)cc2)CC1
value reported: 8.52
//
compound: O=c1[nH]c2ccccc2cc1-c1cn(-c2ccccc2F)nn1
value reported: 6.30
//
compound: CO[C@@H]1CN(C(=O)c2ccc(-n3cc(-c4cc5cc(Cl)ccc5[nH]c4=O)nn3)cc2)C[C@H]1OC
value reported: 9.29
//
compound: CN(C)CCc1ccc(-n2cc(-c3cc4cc(F)c(F)cc4[nH]c3=O)nn2)cc1
value reported: 5.85

[A] O=C(c1cccc(-n2cc(-c3cc4cc(F)ccc4[nH]c3=O)nn2)c1)N1CCC(N2CCCC2)C1 (centres unmarked)
[B] CN(C)C1CCN(C(=O)c2ccc(-n3cc(-c4cc5ccccc5[nH]c4=O)nn3)cc2)CC1
[C] CCN(CC)CC1CCN(C(=O)c2ccc(-n3cc(-c4cc5cc(F)c(F)cc5[nH]c4=O)nn3)cc2)C1 (centres unmarked)
Q. Returns the items ordered by pIC50, from maximum to minimum. Rank the items, then write their labels in that order.
A. B, A, C

[P] CN(C)C[C@@H]1CCCN1C(=O)c1ccc(-n2cc(-c3cc4cc(Cl)ccc4[nH]c3=O)nn2)cc1
[Q] COC[C@@H]1CC[C@@H](COC)N1C(=O)c1ccc(-n2cc(-c3cc4cc(F)c(F)cc4[nH]c3=O)nn2)cc1
[R] O=C(c1ccc(-n2cc(-c3cc4cc(F)ccc4[nH]c3=O)nn2)cc1)N1CCC[C@@H]1CN1CCCC1
Q. Hey, can you sort those compounds up there by pIC50, smallest first? Rank the items, then write their labels in that order.
A. Q, P, R

[I] O=C(c1ccc(-n2cc(-c3cc4ccccc4[nH]c3=O)nn2)cc1F)N1CCOCC1
[II] NC(=O)[C@@H]1CCCN1C(=O)c1ccc(-n2cc(-c3cc4cc(F)ccc4[nH]c3=O)nn2)cc1
Q. Hi, I'm comparing I with II and wondering which one has the bigger number for pIC50. Any idea? Choose, then provide that item's label.
A. I
(I: 8.05, II: 7.77)

The values you see were collected from patent US11939314B2.
